Just for reference, the supplement of paper PMC10724198 is where these values come from.

- Tested on: Saccharomyces cerevisiae
- procedure_text: protein stability index of tFT-peptide fusion (C-terminal peptide) (PSI (0-1 scale)); higher = more stable (slower turnover)
- test_conditions: genetic background: wild type; temperature: 30 C
metric_name: protein stability index
Give the figure only, with no unit attached.

ARRGIVQSRCNW; 0.684
ETALKVGSVGGV; 0.71
VRWGVGVGVGWD; 0.682

Next, consider the following sequence.
Kindly note: Saccharomyces cerevisiae, "SLSTAEAHGRRS" , protein stability index value reported: 0.72

###

Quick reference: protein stability index of the listed items.
- Test system: Saccharomyces cerevisiae
- procedure_text: protein stability index of tFT-peptide fusion (C-terminal peptide) (PSI (0-1 scale)); higher = more stable (slower turnover)
- test_conditions: genetic background: doa10 deletion; temperature: 30 C
I'd appreciate a reply containing only the number, no unit.

Known protein stability index results, listed for orientation:
CWLFCACFVRLV; 0.0691
SHPFIRSLVFLA; 0.0816
WVWFGCVLGYRV; 0.442

protein stability index reported for this sequence "LVMYRSALIRGH" : 0.362

Summary for this sequence, "CVYGILLLVDVR" : protein stability index is 0.0714

The sequence "FYIWFFRLIYFF" showed protein stability index equal to 0.344

Sample "VGGREVSRAGGG" ; protein stability index observed: 0.477

For record "FSCRRISFFLLV" the listed protein stability index is 0.179

# protein stability index of "LASFCSVCIFIS" = 0.099

###

- Tested on: Saccharomyces cerevisiae
- procedure_text: protein stability index of tFT-peptide fusion (C-terminal peptide) (PSI (0-1 scale)); higher = more stable (slower turnover)
- test_conditions: genetic background: wild type; temperature: 37 C
Would you please tag the item true (1) when its protein stability index is 0.5 or above, and false (0) when it is below?

Solved cases below.
RVGALLAVTCPA; false (0)
TYCFRVCAWRAN; false (0)
WLSISNLVIACR; false (0)

Okay, now this sequence:
Q) Answer whether protein stability index of "CYTGYMYKLLVG" is greater than or equal to 0.5.
A) false (0)

###

- Test system: Saccharomyces cerevisiae
- procedure_text: protein stability index of tFT-peptide fusion (C-terminal peptide) (PSI (0-1 scale)); higher = more stable (slower turnover)
- test_conditions: genetic background: doa10 deletion; temperature: 30 C
Label yes (1) when protein stability index >= 0.2; otherwise no (0).

RDRHFKIQTCIM; yes (1)
QLGGKVGNCHVV; yes (1)
VMLVISRLLLLF; no (0)

Q) # check: protein stability index of "CSFELSVCLMLR" is greater than or equal to 0.2
A) yes (1)

Q) Does the reported protein stability index for "SLFDQDCGGTVW" fall at or above the 0.2 mark?
A) yes (1)

Q) Hello, I need to know if "FHLVIYWCVRGP" has measured protein stability index not below 0.2. Thanks!
A) yes (1)

Q) Can "GGGGGGGGGGVG" be said to have protein stability index at or above 0.2?
A) yes (1)

Q) Exam item: decide whether the reported protein stability index for "RSRCVRAAVKVG" is at least 0.2.
A) no (0)

Q) Is protein stability index at least 0.2? Consider "FFFFFLLFFLRV"
A) yes (1)

###

- Tested on: Saccharomyces cerevisiae
- procedure_text: protein stability index of tFT-peptide fusion (C-terminal peptide) (PSI (0-1 scale)); higher = more stable (slower turnover)
- test_conditions: genetic background: das1 deletion; temperature: 37 C
metric_name: protein stability index
Just the number, please.

Recorded results for 2 sequences are shown here.
LYCGLIFFLRGV; 0.647
GMGRVLVEVLLC; 0.519

Now, please, on to the next sequence.
Entry "VVTLHISLFYPG" ; protein stability index = 0.5

###

Catalogue of sequences with associated protein stability index
- Test system: Saccharomyces cerevisiae
- procedure_text: protein stability index of tFT-peptide fusion (C-terminal peptide) (PSI (0-1 scale)); higher = more stable (slower turnover)
- test_conditions: genetic background: wild type; temperature: 30 C
Give the value as a plain number.

A selection of reference data follows.
VFCLPISAPPLH; 0.635
VCLFFFGYWCCL; 0.479
SPLASLRFWCFC; 0.349

Assay Saccharomyces cerevisiae, sample "LLMLWWARVFSG" , protein stability index read: 0.243

###

- Test system: Saccharomyces cerevisiae
- procedure_text: protein stability index of tFT-peptide fusion (C-terminal peptide) (PSI (0-1 scale)); higher = more stable (slower turnover)
- test_conditions: genetic background: wild type; temperature: 30 C
Rule: protein stability index under 0.7 gives NO, otherwise YES.

TPLNPDSLDRPT; NO
QRRGAPTPPACL; YES
ISPRLGLPLAPL; YES
AWCGGVVGVAWL; NO

Q) Reported protein stability index reaches at least 0.7 for "TRSQTASRSPTG" ?
A) NO

Q) In plain terms: is recorded protein stability index at least 0.7 for "VPVWHTVKLYCF" ?
A) NO

Q) Is reported protein stability index greater than or equal to 0.7 here: "LPSPLLFLPALF"
A) NO

###

- Test system: Saccharomyces cerevisiae
- procedure_text: protein stability index of tFT-peptide fusion in wild type (PSI (0-1 scale)); higher = more stable (slower turnover)
- test_conditions: genetic background: wild type
Lab note: anything with protein stability index at or over 0.3 counts as Fulfilled; the rest go in Not fulfilled.

AITWPMCPLLLR; Not fulfilled
PSLAANFWRVVG; Not fulfilled
AITLPMCPLLLRC; Not fulfilled
VRGAVGGWRLVGK; Fulfilled
ARWRVGLWREAS; Not fulfilled

Q) In plain terms: is recorded protein stability index at least 0.3 for "ARWRVGLWRGASD" ?
A) Fulfilled

Q) I'd appreciate it if you could say whether "KKHKKGKKQKIN" has protein stability index at least equal to 0.3.
A) Not fulfilled

Q) State whether the measured protein stability index reaches 0.3, counting equality as reaching it, for "RLIQPLPGQFLN"
A) Not fulfilled

Q) Can "RSLRVLLMLYFR" be said to have protein stability index at or above 0.3?
A) Not fulfilled

Q) Would you say "PDKRNNLIKLLN" shows protein stability index at minimum 0.3?
A) Not fulfilled

Q) Is it the case that "AITTPMCPLLLR" has protein stability index reaching or exceeding 0.3?
A) Fulfilled

Q) Can "GLVSLPILLFFR" be said to have protein stability index at or above 0.3?
A) Not fulfilled

###

- Test system: Saccharomyces cerevisiae
- procedure_text: protein stability index of tFT-peptide fusion (C-terminal peptide) (PSI (0-1 scale)); higher = more stable (slower turnover)
- test_conditions: genetic background: wild type; temperature: 30 C
The sequences listed here are annotated with their protein stability index.
Format: numeric value only, no unit, no commentary.

Solved entries:
SIRGLRTLKFLG; 0.674
PLPPCSARPPPR; 0.766
SVLVLGRSRPSF; 0.688
QCSVFSSPPRAL; 0.723
PPPPYPLPASCL; 0.653

Form field protein stability index, entry "PGALILSNRFFS" : 0.685

Memo: "RKHMCSYIRVSR" , reported protein stability index: 0.723

Given item "PKKTTIQRDKTN" , the value recorded as its protein stability index is 0.607

###

- Test system: Saccharomyces cerevisiae
- procedure_text: protein stability index of tFT-peptide fusion (C-terminal peptide) (PSI (0-1 scale)); higher = more stable (slower turnover)
- test_conditions: genetic background: wild type; temperature: 30 C
A collection of sequences and their measured protein stability index

Recorded protein stability index, per entry:
PVSSLPQTLLMF; 0.758
PAAFPRPTRHAA; 0.693
LLFRSLASMEFP; 0.693
ASPFCRPNRHLL; 0.648

The reported protein stability index of the sequence "EWVGIFRGVSVF" was 0.371

Quick note, protein stability index for "PAPQAVRIFSLY" landed at 0.428

###

- Tested on: Saccharomyces cerevisiae
- procedure_text: protein stability index of tFT-peptide fusion (C-terminal peptide) (PSI (0-1 scale)); higher = more stable (slower turnover)
- test_conditions: genetic background: wild type; temperature: 30 C
Give criterion met when the value for protein stability index is at least 0.7. Give criterion not met when it is less.

KIGVHRGRGGRM; criterion not met

Q) Dear colleague, could you confirm whether "SELRFALCPAFL" has protein stability index at or above 0.7?
A) criterion not met

Q) In plain terms: is recorded protein stability index at least 0.7 for "TVLGRDFALSVC" ?
A) criterion not met

Q) Say whether "PPHPPPPSPALL" shows protein stability index of 0.7 or more.
A) criterion met

Q) Does the reported protein stability index for "KTKKNKITFKNK" fall at or above the 0.7 mark?
A) criterion met

Q) Entry "DTVYSRAIAANA" : is its protein stability index no less than 0.7?
A) criterion not met

###

- Tested on: Saccharomyces cerevisiae
- procedure_text: protein stability index of tFT-peptide fusion (C-terminal peptide) (PSI (0-1 scale)); higher = more stable (slower turnover)
- test_conditions: genetic background: wild type; temperature: 30 C
Use T when the recorded protein stability index is no lower than 0.7; use F when it is lower.

Consider the following illustrative entries.
FFFLILFPLSYS; F
GKCTGSAEMRPQ; F
STTLKIHRKNRK; T
DFIEINFDLFPP; F
GWIFFYFTWFVG; F

Q) Check this sequence for protein stability index at or above 0.7: "RRFKKTEIIKNN"
A) F

Q) Quick check, protein stability index >= 0.7? "QFSSPPLPLLSP"
A) F

Q) I'd appreciate it if you could say whether "SRNFSIQILRER" has protein stability index at least equal to 0.7.
A) F

Q) State whether the measured protein stability index reaches 0.7, counting equality as reaching it, for "LVGGTVYRKPSP"
A) F

Q) Evaluate "LEWGRGFGLWGG" : protein stability index at minimum 0.7?
A) T

Q) In plain terms: is recorded protein stability index at least 0.7 for "ICFPLQIFRILV" ?
A) F

Q) Textbook exercise: given the entry "PPFRRPPPDPQP" , state whether its protein stability index is greater than or equal to 0.7.
A) T
